Exercise: state measured TGI for each of the compounds provided.
# Test system: SN12C renal
# methodSummary: NCI tumour cell line growth inhibition, 48 h

// worked examples, TGI included
>  <compound>
COC(=O)C(C(=O)Cc1ccccc1[N+](=O)[O-])C(=O)OC

>  <TGI>
> 100 µM

$$$$
>  <compound>
O=C1c2cccc3cccc(c23)C(=O)N1CCCCCN1CCN(CCCCCOc2ccc(-c3nc4ccc(N5CCOCC5)cc4[nH]3)cc2)CC1

>  <TGI>
> 100 µM

$$$$
>  <compound>
COc1cc(/C=C/C(=O)Oc2ccc(NC(C)=O)cc2)ccc1C(=O)O/C=C/c1ccccc1

>  <TGI>
> 100 µM

$$$$
>  <compound>
O=C(CNS(=O)(=O)Cc1ccccc1)NNc1ccccc1

>  <TGI>
> 100 µM

$$$$
>  <compound>
CC(Oc1ccc(OCC2CCCCC2)cc1)C(=O)OCC(=O)c1ccc(-c2ccccc2)cc1 (stereo not given)

>  <TGI>
> 100 µM

$$$$
>  <compound>
BrCc1cccc(C[P+](c2ccccc2)(c2ccccc2)c2ccccc2)c1

>  <TGI>
> 100 µM

$$$$
>  <compound>
CCOC(=O)C1SC(=Nc2ccccc2)N=C1C (stereo not given)

>  <TGI>
> 100 µM

$$$$
>  <compound>
COC(=O)c1ccc(-c2c(C#N)[n+](=O)c3cc(Cl)c(Cl)cc3n2[O-])cc1

>  <TGI>
29.3 µM

$$$$
>  <compound>
Cc1nn(C(=O)CC(=O)Nc2ccc(Cl)cc2)c(C)c1N=Nc1ccccc1C(=O)O

>  <TGI>
> 100 µM

$$$$

Given the compound `[N-]=[N+]=NCc1nc(N)c2c3c(sc2n1)CCCC3` , what is its reported TGI?
10.2 µM
